The values you see were collected from paper PMC12748989.

# Tested on: PBMC
# measurementContext: 12.5 µM
observable: Average (percentage cell inhibition), Mastoparan PBMC (%)
# number only, unit % dropped from output

INPUT: Please respond with reported Average (percentage cell inhibition), Mastoparan PBMC (system PBMC) for "CC[C@H](C)[C@H](N)C(=O)N[C@@H](CC(N)=O)C(=O)N[C@@H](CC(C)C)C(=O)N[C@@H](CCCCN)C(=O)N[C@@H](C)C(=O)N[C@@H](CC(C)C)C(=O)N[C@@H](C)C(=O)N[C@H](C(=O)N[C@@H](CC(C)C)C(=O)N[C@@H](C)C(=O)N[C@@H](CCCCN)C(=O)N[C@@H](CCCCN)C(=O)N[C@H](C(=O)N[C@@H](CC(C)C)C(N)=O)[C@@H](C)CC)[C@@H](C)O" .
OUTPUT: 11.6569

More entries:
INPUT: Please respond with reported Average (percentage cell inhibition), Mastoparan PBMC (system PBMC) for "CC[C@H](C)[C@H](N)C(=O)N[C@@H](CC(N)=O)C(=O)N[C@@H](CC(C)C)C(=O)N[C@@H](CCCCN)C(=O)N[C@@H](C)C(=O)N[C@@H](C)C(=O)N[C@@H](C)C(=O)N[C@@H](C)C(=O)N[C@@H](CC(C)C)C(=O)N[C@@H](C)C(=O)N[C@@H](CCCCN)C(=O)N[C@@H](CCCCN)C(=O)N[C@H](C(=O)N[C@@H](CC(C)C)C(N)=O)[C@@H](C)CC" .
OUTPUT: -1.6231

---

Average (percentage cell inhibition), Mastoparan PBMC by entry:
# Test system: PBMC
# measurementContext: 12.5 µM
# number only, unit % dropped from output

INPUT: Please respond with reported Average (percentage cell inhibition), Mastoparan PBMC (system PBMC) for "CC[C@H](C)[C@H](N)C(=O)N[C@@H](CC(N)=O)C(=O)N[C@@H](CC(C)C)C(=O)N[C@@H](CCCCN)C(=O)N[C@@H](C)C(=O)N[C@@H](CC(C)C)C(=O)N[C@@H](C)C(=O)N[C@@H](C)C(=O)N[C@@H](CC(C)C)C(=O)N[C@@H](C)C(=O)N[C@@H](CCCCN)C(=O)N[C@@H](CCCCN)C(=O)N[C@@H](CC(N)=O)C(=O)N[C@@H](CC(C)C)C(N)=O" .
OUTPUT: 7.072

INPUT: Please respond with reported Average (percentage cell inhibition), Mastoparan PBMC (system PBMC) for "CC[C@H](C)[C@H](N)C(=O)N[C@@H](CC(N)=O)C(=O)NCC(=O)N[C@@H](CCCCN)C(=O)N[C@@H](C)C(=O)N[C@@H](CC(C)C)C(=O)N[C@@H](C)C(=O)N[C@@H](C)C(=O)N[C@@H](CC(C)C)C(=O)N[C@@H](C)C(=O)N[C@@H](CCCCN)C(=O)N[C@@H](CCCCN)C(=O)N[C@H](C(=O)N[C@@H](CC(C)C)C(N)=O)[C@@H](C)CC" .
OUTPUT: 8.745

---

Consider the following Average (percentage cell inhibition), Dmastoparan MDA-MB231 12.5uM values measured on MDA-MB-231 cells.
# number only, unit % dropped from output

INPUT: Please respond with reported Average (percentage cell inhibition), Dmastoparan MDA-MB231 12.5uM (system MDA-MB-231 cells) for CC[C@H](C)[C@H](NC(=O)[C@H](CCCCN)NC(=O)[C@H](CCCCN)NC(=O)[C@H](C)NC(=O)[C@H](CC(C)C)NC(=O)[C@H](C)NC(=O)[C@H](C)NC(=O)[C@H](CC(C)C)NC(=O)[C@H](C)NC(=O)[C@H](CCCCN)NC(=O)[C@H](CC(C)C)NC(=O)[C@H](CC(N)=O)NC(=O)[C@@H](N)CCC(=O)O)C(=O)N[C@@H](CC(C)C)C(N)=O [E1] .
OUTPUT: 25.5598

Now for the molecule whose Average (percentage cell inhibition), Dmastoparan MDA-MB231 12.5uM we want.
INPUT: Please respond with reported Average (percentage cell inhibition), Dmastoparan MDA-MB231 12.5uM (system MDA-MB-231 cells) for CC[C@H](C)[C@H](N)C(=O)N[C@@H](CC(N)=O)C(=O)N1CCC[C@H]1C(=O)N[C@@H](CCCCN)C(=O)N[C@@H](C)C(=O)N[C@@H](CC(C)C)C(=O)N[C@@H](C)C(=O)N[C@@H](C)C(=O)N[C@@H](CC(C)C)C(=O)N[C@@H](C)C(=O)N[C@@H](CCCCN)C(=O)N[C@@H](CCCCN)C(=O)N[C@H](C(=O)N[C@@H](CC(C)C)C(N)=O)[C@@H](C)CC [P3] .
OUTPUT: 17.7289
